Where do the numbers come from? From FireProtDB.

As shown below, each of these variants has a reported unfolding enthalpy (van 't Hoff) value.
B1: Ribonuclease HI, P0A7Y4 (parent)
chain: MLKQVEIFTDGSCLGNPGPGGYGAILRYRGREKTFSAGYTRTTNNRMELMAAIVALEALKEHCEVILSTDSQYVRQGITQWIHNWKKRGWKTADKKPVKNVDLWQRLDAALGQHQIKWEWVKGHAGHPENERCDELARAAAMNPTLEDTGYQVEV

# Variants of: B1
# Run Parameters: Escherichia coli (strain K12); pH 3; Thermal; CD; glycine-HCl 10 mM; NaCl 0.1 M; reversible: yes; structure 2RN2; whole UniProt chain shown
Measure: unfolding enthalpy (van 't Hoff) (kcal/mol)

[[record]]
variant_description = "K95N"
numeric_result = 109

[[record]]
variant_description = "Q76L"
numeric_result = 110

[[record]]
variant_description = "E119V K60R"
numeric_result = 109

[[record]]
variant_description = "G23A"
numeric_result = 99.3

[[record]]
variant_description = "A24V"
numeric_result = 109

[[record]]
variant_description = "Q80L K117R"
numeric_result = 104

[[record]]
variant_description = "A52V"
numeric_result = 128

[[record]]
variant_description = "Q80L"
numeric_result = 114

[[record]]
variant_description = "H62P"
numeric_result = 110

[[record]]
variant_description = "H62R"
numeric_result = 114

[[record]]
variant_description = "H62D"
numeric_result = 118

